# reported clearance; entries follow
- protocol.summary: Pharmacokinetics study in mice
- Assay type: in vivo, ICR mice
- settings: both sexes, ICR, mouse, plasma, iv, i.v. 2 mg/kg

>>> observed_value("C=CC(=O)Nc1cc(N(C(=O)NCc2ccccc2)[C@H]2CC[C@H](Nc3ccc(C#N)cn3)CC2)ccc1N1CCN(C)[C@@H](C)C1 [Compound 14h]")
"108 mL/min/kg"

Query compound follows.
Give clearance for "C=CC(=O)Nc1cc(N(C(=O)NCc2ccccc2)[C@H]2CC[C@H](Nc3ccc(C#N)cn3)CC2)ccc1N1CCC(N(C)C)CC1" 28.3 mL/min/kg

* * *

- system.under.test: CDK3/CycC (Homo sapiens)
- Construct: ICE Bioscience Inc. (assay service)
- Sequence (Q00526 whole entry, species assumed): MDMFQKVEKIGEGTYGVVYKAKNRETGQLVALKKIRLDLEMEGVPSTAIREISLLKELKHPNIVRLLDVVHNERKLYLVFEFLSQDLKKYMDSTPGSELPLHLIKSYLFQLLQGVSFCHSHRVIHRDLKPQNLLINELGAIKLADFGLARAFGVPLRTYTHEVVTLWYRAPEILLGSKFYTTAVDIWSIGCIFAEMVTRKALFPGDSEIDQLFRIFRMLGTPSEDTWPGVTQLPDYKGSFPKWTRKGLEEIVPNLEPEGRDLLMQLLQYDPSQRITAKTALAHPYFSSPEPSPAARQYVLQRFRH
- Sequence (P24863 whole entry partner, species assumed): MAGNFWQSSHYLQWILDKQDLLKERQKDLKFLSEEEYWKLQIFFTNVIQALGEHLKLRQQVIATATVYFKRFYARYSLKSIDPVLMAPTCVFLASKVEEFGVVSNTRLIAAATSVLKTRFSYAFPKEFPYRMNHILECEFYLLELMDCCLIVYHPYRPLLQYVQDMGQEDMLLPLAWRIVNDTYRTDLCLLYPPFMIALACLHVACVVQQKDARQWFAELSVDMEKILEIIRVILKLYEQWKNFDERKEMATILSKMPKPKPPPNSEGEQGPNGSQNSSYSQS
- protocol.summary: CDK family panel, ADP-Glo
- Type: biochemical
endpoint.name: IC50

Give IC50 for "C=CC(=O)Nc1cc(N(C(=O)NCc2ccccc2)[C@H]2CC[C@H](Nc3ccc(C#N)cn3)CC2)ccc1N1CCC(N(C)C)CC1" > 10000 nM
